- Test system: MS2 coat protein
- assay_method_text: apparent KD of MS2 coat protein; designed switch direction (-1 OFF switch, 1 ON switch): -1; higher = weaker reporter binding
- condition_parameters: Eterna round: R95; input ligand: microRNA oligo, concentration not stated
Category scheme (apparent KD of MS2 coat protein): class 1: < 20 nM; class 2: ≥ 20 nM and < 30 nM; class 3: ≥ 30 nM

GGGUAGUGAGGAUAUCGUUGUUAGGAGGAGAAGGUAGGAGGCGAGAAGGCACAUGAGGAUCACCCAUGUAUGAG [JR_Exclu4_Sub064] (puzzle: Exclusion 4) = class 2

Hello team, could you let me know which band the following sequence falls into: CUUUUGUGAGGAUAUCAGUAGUAAAAAAAUAAAAUUACUACUGAGAAGGCACAUGAGGAUCACCCAUGUUCCUU [salish99_ex4_r3_010] (puzzle: Exclusion 4) class 1

Hello team, could you let me know which band the following sequence falls into: GUGGUACAUGAGGAUCACCCAUGUCAGGAUAUCGUGUGUUUUUUUUCGGCCGCGCGCGCGAGAAGGGACGUCUU (puzzle: Exclusion 1) class 1

Hello team, could you let me know which band the following sequence falls into: AGUAGUAGUAUCCGAUCCUACAUGAGGAUCACCCAUGUAGCUAGACGUGCACGCGAUGCUCGUCAGACUGCCAGAUG [salish99_TOv1_r3_049] (puzzle: Sensor v3, turn-off variant 1) class 3

Hello team, could you let me know which band the following sequence falls into: AGUAACUAUCACGAAAGUGAUAGUUACAAUAGCAGUGGAACAUGAGGAUCACCCAUGUCCUCAUUUGCUCGUCUUAU [Sensor 3 - 22] (puzzle: Sensor v3, turn-off variant 2) class 2

###

- Test system: MS2 coat protein
- assay_method_text: apparent KD of MS2 coat protein; designed switch direction (-1 OFF switch, 1 ON switch): -1; higher = weaker reporter binding
- condition_parameters: input ligand: none
observable: apparent KD of MS2 coat protein
Enter the number, and then the unit.

Examples with their reported apparent KD of MS2 coat protein follow.
UGUUGUCGCGUAGGAUAUGGCCAACAGGCCCUAGGAUAUCGGAAACGAGAAGGAGCGCCAACAGGCGAGAAGGACGGGACAACU [pwkr exNG2 2xF7 2xFMN.20] (Eterna round: R96, puzzle: Exclusion NG 2) = 10.7 nM
UACUGGACAGGAUAUGUUCUUGAGCACUUGAGGAUCACCCAAGUCAUCAAGAACUCAGGCACAGAAGGGUUUAUGC [salish99_ex5_r4_007] (Eterna round: R97, puzzle: Exclusion 5) = 14 nM
UAUAACCGAGGAUAUACAUGAGGAUCACCCAUGUAAUGUAGUAUAGUGUAUGUAAGAUGUAGAAGGUGGGAUGU (Eterna round: R97, puzzle: Exclusion 3) = 59 nM
AAUCAUCAUGUAGGAUAUGCGUGGCGAAGCUAUGCAGAAGGACAUGAGGAUCACCCAUGUUCUUGCGUCUGCGUACAGAUGCAA [Mat - Exclusion NG 1 - Mod of JL - D72] (Eterna round: R96, puzzle: Exclusion NG 1) = 72 nM

Return reported apparent KD of MS2 coat protein; argument: UUAGGAUCAGGAUAUGAUGUUUUUUACAUGAGGAUCACCCAUGUUGAUCCUGAUUCAACAUCAGAAGGGAUAAUUU [JR_Ex5_Sub081] (Eterna round: R97, puzzle: Exclusion 5) 21.4 nM

###

- Test system: MS2 coat protein
- assay_method_text: apparent KD of MS2 coat protein; designed switch direction (-1 OFF switch, 1 ON switch): -1; higher = weaker reporter binding
- condition_parameters: input ligand: FMN 200 uM
Entries annotated with measured apparent KD of MS2 coat protein
Form entry: value (nM) — number only.

CUCGUGCAGCUUUGCUGUACGAGUACAUGAGGAUCACCCAUGUAGGAUAUGGUACGCUUUGCGUGCCAGAAGGACGUGCGUUAG [JL EXNG3 1.41] (Eterna round: R96, puzzle: Exclusion NG 3) = 78.6
UAAUGUAUAUAGGAUAUCUAGCUGGUAACAGCUAGAGAAGGAUGUACAUGAGGAUCACCCAUGUAAAUCAGUGA [Ex6/14-B2] (Eterna round: R97, puzzle: Exclusion 6) = 186

Kindly consider the entry below.
Return reported apparent KD of MS2 coat protein; argument: AGGAGACAUGAGGAUCACCCAUGUAAGGAUAUGUAGGAGCAGCCGGCUGGUUCGCUCCGCAGAAGGUGCGCGGU [Eternabot (L2) Solution 11] (Eterna round: R97, puzzle: Exclusion 1) 49.3

###

- Tested on: MS2 coat protein
- assay_method_text: apparent KD of MS2 coat protein; designed switch direction (-1 OFF switch, 1 ON switch): 1; higher = weaker reporter binding
- condition_parameters: input ligand: FMN 200 uM
observable: apparent KD of MS2 coat protein (nM)
Form entry: value (nM) — number only.

Examples with their reported apparent KD of MS2 coat protein follow.
AAGAAAGUUUACGAGGAUAUGUUCCGCAUAACAUGAGGAUCACCCAUGUGAACAAGAAAGGCGACGCAGAAGGCGUGAGCAAAGA [Atanansori] (Eterna round: R96, puzzle: Same State 2) = 42.4
CUUCUUCCUUUUACAUGAGGAUCACCCAUGUUUUCAUAUUGAGAGGAUAUCGUAUUUGGAAACAUCGAGAAGGCUCAUUUGUAU [JR_SSNG3_Sub074] (Eterna round: R96, puzzle: Same State NG 3) = 78.6

Kindly consider the entry below.
Return reported apparent KD of MS2 coat protein; argument: GUGGUCAGACAUGAGGAUCACCCAUGUGGAAUAAAUAACGGACAGGAUAUAUAAUAUAGGAUAUAGUAGAAGGGUUGAUUGGUG (Eterna round: R96, puzzle: Same State NG 3) 85.8

###

- Test system: K4 kissing-loop RNA reporter;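 further: bound reporter read as fluorescence of individual clusters on recovered sequencing chips by microscopy, with normalized cluster intensities fitted with a binding model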
- assay_method_text: apparent KD of K4 kissing-loop reporter; higher = weaker reporter binding
- condition_parameters: Eterna round: R107; input ligand: theophylline 20 uM
Classification field: 1 = apparent KD of K4 kissing-loop reporter at or over 500 nM; -1 = apparent KD of K4 kissing-loop reporter under 500 nM.

hey, is apparent KD of K4 kissing-loop reporter for this one >= 500 nM? GAAUUAUGUAGAAGGAGCGUCAGAAGGUAUAGGUGCGAGUGAUGUUUGGACCUGUUAAUUUGACAGGUAGGUCGCUACAGAAGGA [KL-SSArg B20 #analogue] -1

hey, is apparent KD of K4 kissing-loop reporter for this one >= 500 nM? AGGAGUGAUGUUCCUACAUACACGGUCCGACGAGGACCGGUACGGCCGCCACUCGCGUCCCAGUGAUGUUGGGAUUUGGCGUACG [Exclusion Tryptophan A GF 17] -1

hey, is apparent KD of K4 kissing-loop reporter for this one >= 500 nM? AGACUAUCGUCAAAGACGGUAGUCAAAAGUGAGGAUAUAGUGAUGUUUAGAAGGCACUAAGACUGUAUCGAAUAGAUACGGUCAA [FmnA 1 #K4BetweenAptamer #OpenEnded] 1

hey, is apparent KD of K4 kissing-loop reporter for this one >= 500 nM? UAUAGAGUGACGGCCGCCACUAUUGUGAUUUAAUUGUUUGAGUGAUGUUUUGAUGUUUGAUUUUGUAGGACCGGGUUAUAUGUUA [zdzzmullin] 1

hey, is apparent KD of K4 kissing-loop reporter for this one >= 500 nM? GUCUGCUGUAUCGAUACCAGAAGUGGGCAGUGAUGUUGUUCGGGUACAUCGCGUCUCGAGUUCCCUUGGCAGCGAUUGUACGAAU [theeternabot_exclusion_KL_Theo_B_12] 1

hey, is apparent KD of K4 kissing-loop reporter for this one >= 500 nM? CCUUGGAUUAGCUGUACUUUUCUACGGGAUACCAGUGCGUAACACCACCCUUGGCAGCCCGAUUACCGGCAGUGAUGUUGCCUCU [theeternabot_sameState_KL_Theo_A_41] -1

hey, is apparent KD of K4 kissing-loop reporter for this one >= 500 nM? AAAUAAAGCAGUCACCCAGUGAUGUUGGAAGGAGCGUGCGAAAGCACAGGUAGGUCGCCAAAAUAAAGUGGCUGCGGCAAAGCCA [#SwitchBubble 25 #K4Early] 1

hey, is apparent KD of K4 kissing-loop reporter for this one >= 500 nM? ACCACCUGUCUGGAUACCAGUCUUCGAGUGAUGUUGGAAGUUAGCCGGUUCUAUUACCUAGACCCUUGGCAGCCAGGAAUUAUAG [theeternabot_exclusion_KL_Theo_B_17] 1

###

- Test system: MS2 coat protein
- assay_method_text: apparent KD of MS2 coat protein; designed switch direction (-1 OFF switch, 1 ON switch): 1; higher = weaker reporter binding
- condition_parameters: Eterna round: R95; input ligand: FMN 200 uM
observable: apparent KD of MS2 coat protein (nM)
Form entry: value (nM) — number only.

GACUAUCUAUCUCAGGAUAUCAUGUCAAAGACAUGAGGAUCACCCAUGUACCAGGAAACUGGUUAUGAGAAGGGAGAUAGAUAGG [Mat - Same State 2 - Mod - D43] (puzzle: Same State 2) = 81.1

Provide value of apparent KD of MS2 coat protein for this record tested with MS2 coat protein: AGUCCAGCGAAAGCUGGACAAAAGCAUGUACAUGAGGAUCACCCAUGUUCAUGUACAGGCUUUUUGCUCGUCUUAAA [JL mod - D95 - 8] (puzzle: Sensor for hsa-mir-208a) 243

Provide value of apparent KD of MS2 coat protein for this record tested with MS2 coat protein: UAGAACAAGCUUUUUGCCCGUCUUAUAUAACAUGAGGAUCACCCAUGUAAGGUGAAAGUUAGAGAGUGGAGGUUGAA [JR_SHM208A_Sub048] (puzzle: Sensor for hsa-mir-208a) 216

Provide value of apparent KD of MS2 coat protein for this record tested with MS2 coat protein: AGCGCGAUCUCGCAGGAUAUCCACAUUCCUACAUGAGGAUCACCCAUGUCGCUGCAGGAUAUUAGGGAGAAGGGUGAUGUCGCGC [Arxeinor] (puzzle: Same State 2) 21.4

Provide value of apparent KD of MS2 coat protein for this record tested with MS2 coat protein: UCUUGGUUUUUGCUCGUUUUUUGUGUUGAACAUGAGGAUCACCCAUGUAUUGUACGGUCCAGUUUGGUGGUAGUCCG [JMF 71] (puzzle: Sensor for hsa-mir-208a) 32.9
